Assay target: HUα2 wild-type (Escherichia coli (MG1655-derived …, UniProt P0ACF0 1-90))
Protocol description: fluorescence polarization
Value kind: pKd
Please treat pKd as minus the base-10 logarithm of the molar concentration.

Input line: Data request, read-out pKd, for linear DNA of random sequence (40 bp) (dsDNA) DNA 1: CCGACTAAGTACATGTGAGAATTTTGCTGCCTTCGAACCT DNA 2: AGGTTCGAAGGCAGCAAAATTCTCACATGTACTTAGTCGG
Output line: 7.29
